Target: Mu-type opioid receptor (Mus musculus) (UniProt P42866)
Experiment: Binding affinity to mouse mu opioid receptor expressed in CHO cell membrane assessed as stimulation of [35S]-GTPgammaS binding by measuring maximal efficacy incubated for 1.5 hrs by scintillation spectroscopy analysis relative DAMGO
Assay type: cell membranes
Details: filed as modulator
observed property: Emax (%)
Numbers only, in %.

Hi team, please reply with Emax for each item in this list.
1. O=C(N[C@@H]1CC[C@@]2(O)[C@H]3Cc4ccc(O)c5c4[C@@]2(CCN3CC2CC2)[C@H]1O5)c1cccc2c([N+](=O)[O-])c[nH]c12
2. Cc1c[nH]c2c(C(=O)N[C@@H]3CC[C@@]4(O)[C@H]5Cc6ccc(O)c7c6[C@@]4(CCN5CC4CC4)[C@H]3O7)cccc12
3. O=C(N[C@@H]1CC[C@@]2(O)[C@H]3Cc4ccc(O)c5c4[C@@]2(CCN3CC2CC2)[C@H]1O5)c1cccc2c(Br)c[nH]c12
4. O=C(N[C@@H]1CC[C@@]2(O)[C@H]3Cc4ccc(O)c5c4[C@@]2(CCN3CC2CC2)[C@H]1O5)c1cccc2c(Cl)c[nH]c12

a:
60.9
44
70.4
59.5

###

Endpoint: pKi. System: UniProtKB P42866. Items follow.
Numbers only, as −log10 of the molar value.

N#Cc1c[nH]c2c(C(=O)N[C@H]3CC[C@@]4(O)[C@H]5Cc6ccc(O)c7c6[C@@]4(CCN5CC4CC4)[C@H]3O7)cccc12    9.06

Look at each compound and report its pKi.
1. N#Cc1cc2cccc(C(=O)N[C@@H]3CC[C@@]4(O)[C@H]5Cc6ccc(O)c7c6[C@@]4(CCN5CC4CC4)[C@H]3O7)c2[nH]1
2. O=C(N[C@H]1CC[C@@]2(O)[C@H]3Cc4ccc(O)c5c4[C@@]2(CCN3CC2CC2)[C@H]1O5)c1cccc2cc(-c3ccccc3)[nH]c12

a:
1. 9.14
2. 8.61

###

Test system: Mus musculus
Experiment: Antinociceptive activity in Swiss Webster mouse assessed as inhibition of morphine induced latency to tail withdrawal at 10 mg/kg, sc preincubated for 5 mins followed by morphine addition and measured after 20 mins by warm water tail immersion assay
Format: functional, organism-based
Conditions: time 25.0 min
Calls of active or inactive are those of the source. No cut-off for these calls is given here.
observed property: Activity

O=Cc1c[nH]c2c(C(=O)N[C@H]3CC[C@@]4(O)[C@H]5Cc6ccc(O)c7c6[C@@]4(CCN5CC4CC4)[C@H]3O7)cccc12    inactive
CC(=O)c1c[nH]c2c(C(=O)N[C@H]3CC[C@@]4(O)[C@H]5Cc6ccc(O)c7c6[C@@]4(CCN5CC4CC4)[C@H]3O7)cccc12    inactive
O=C(N[C@H]1CC[C@@]2(O)[C@H]3Cc4ccc(O)c5c4[C@@]2(CCN3CC2CC2)[C@H]1O5)c1cccc2cc(-c3ccccc3)[nH]c12    inactive

###

For each entry below, report its Ki value.
Target: Kappa-type opioid receptor (Mus musculus, UniProt P33534)
Give bare numbers, in nM.

Past entries and their recorded results:
N#Cc1cc2cccc(C(=O)N[C@H]3CC[C@@]4(O)[C@H]5Cc6ccc(O)c7c6[C@@]4(CCN5CC4CC4)[C@H]3O7)c2[nH]1    7.1
CC(C)c1c[nH]c2c(C(=O)N[C@H]3CC[C@@]4(O)[C@H]5Cc6ccc(O)c7c6[C@@]4(CCN5CC4CC4)[C@H]3O7)cccc12    11
O=C(N[C@@H]1CC[C@@]2(O)[C@H]3Cc4ccc(O)c5c4[C@@]2(CCN3CC2CC2)[C@H]1O5)c1cccc2c(C3CCCC3)c[nH]c12    10.8
O=C(N[C@H]1CC[C@@]2(O)[C@H]3Cc4ccc(O)c5c4[C@@]2(CCN3CC2CC2)[C@H]1O5)c1cccc2c(-c3ccccc3)c[nH]c12    13.4
O=C(N[C@H]1CC[C@@]2(O)[C@H]3Cc4ccc(O)c5c4[C@@]2(CCN3CC2CC2)[C@H]1O5)c1cccc2cc(-c3ccccc3)[nH]c12    6.42
O=C(N[C@H]1CC[C@@]2(O)[C@H]3Cc4ccc(O)c5c4[C@@]2(CCN3CC2CC2)[C@H]1O5)c1cccc2c(C3CCCCC3)c[nH]c12    9.65

Quick request: Ki for each listed item, please.
1. O=C(N[C@H]1CC[C@@]2(O)[C@H]3Cc4ccc(O)c5c4[C@@]2(CCN3CC2CC2)[C@H]1O5)c1cccc2c([N+](=O)[O-])c[nH]c12
2. CC(=O)Nc1c[nH]c2c(C(=O)N[C@@H]3CC[C@@]4(O)[C@H]5Cc6ccc(O)c7c6[C@@]4(CCN5CC4CC4)[C@H]3O7)cccc12

a:
[9.84, 6.52]
